Exercise: for every item that follows, state its recorded recombinant barcode read abundance (log10).
Experiment: recombinant barcode read abundance after kanamycin selection (control-corrected) (log10(CPM+1)); higher = more efficient recombination; sequences stand for … in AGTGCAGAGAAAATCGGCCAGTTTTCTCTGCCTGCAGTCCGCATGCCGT…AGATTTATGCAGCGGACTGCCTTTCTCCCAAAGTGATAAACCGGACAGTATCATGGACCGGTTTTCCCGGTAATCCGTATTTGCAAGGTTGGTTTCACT; site = the 11-nt target

biopolymersequence="GTCTTCCCTTGGGTTCTAACCTGTTGCGT (site GTCATGCCTAC)" measured=0.0371
biopolymersequence="CGCGCAGCTTGGGTTCTAACCTGTTGCCT (site CGCGCAGCTAG)" measured=0.267
biopolymersequence="GCACGAACTTGGGTTCTAACCTGTTGCCT (site GCACGAACTAG)" measured=1
biopolymersequence="CATGCCGCTTGGGTTCTAACCTGTTGCCT (site CATGACACTAG)" measured=0.226

Respectfully, I request recombinant barcode read abundance (log10) for each entry included below.
1. CGTTCACCTTGGGTTCTAACCTGTTGCAT (site ACAAATACTCC)
2. CTCTGAGCTTGGGTTCTAACCTGTTGCAG (site ACTGCTCCTAG)
3. TTGGGAGCTTGGGTTCTAACCTGTTGCTG (site TTCGGAGCTCA)
4. CACTTCCCTTGGGTTCTAACCTGTTGCAT (site CACTTCCCTAA)
5. CTCTCTTCTTGGGTTCTAACCTGTTGCCT (site CTCTCTCCTAG)

Marked response:
0.0056
0.0584
0.426
0.0158
0.0216

Exam item: Quick one: recombinant barcode read abundance (log10) for CTAAGGCCTTGGGTTCTAACCTGTTGCCT (site CTAAAGCCTAG) ?
Marked response: 0.377

* * *

Assay: recombinant UMI read abundance after kanamycin selection (control-corrected) (log10(CPM+1)); higher = more efficient recombination; extreme values may be limits of the assay; sequences stand for … in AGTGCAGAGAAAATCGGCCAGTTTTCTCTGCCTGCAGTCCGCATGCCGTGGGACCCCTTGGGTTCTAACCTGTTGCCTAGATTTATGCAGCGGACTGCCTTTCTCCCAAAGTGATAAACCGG…AGGTTGGTTTCACT; site = the 11-nt donor
measuredMetric: recombinant UMI read abundance (log10)

biopolymersequence="TACTTGCCATGGACCGGTTTTCCCGGTAATCCGTATTTGCT (site TACTTGCCTAG)" measured=0.597
biopolymersequence="TAGAAGACATGGACCGGTTTTCCCGGTAATCCGTATTTGCA (site TAGAAAACTTG)" measured=0

Give one value of recombinant UMI read abundance (log10) per listed sequence.
1. ATATGGCCATGGACCGGTTTTCCCGGTAATCCGTATTTGAC (site ATAAGGCCTGT)
2. GGCCACCCATGGACCGGTTTTCCCGGTAATCCGTATTTGCG (site GGCCACCCTCG)
3. CGATCGTCATGGACCGGTTTTCCCGGTAATCCGTATTTGTT (site CGATCGTCTAA)
4. TTAGCTGCATGGACCGGTTTTCCCGGTAATCCGTATTTGTG (site TGAGCTGCTCA)

Marked response:
1. 0
2. 0.00687
3. 1.25
4. 0.0117

Give one value of recombinant UMI read abundance (log10) per listed sequence.
1. GTGGCGGCATGGACCGGTTTTCCCGGTAATCCGTATTTGTG (site GTGGGGGCTCA)
2. TGTGCGTCATGGACCGGTTTTCCCGGTAATCCGTATTTGGT (site TGTGCGTCTAC)
3. TAGCATACATGGACCGGTTTTCCCGGTAATCCGTATTTGCA (site TAGTATACTTG)
4. CGATCATCATGGACCGGTTTTCCCGGTAATCCGTATTTGGT (site CGATCATCTAC)

Marked response:
[0.0119, 0.348, 0.507, 1.58]

Below are 4 sequences. Give each one its recombinant UMI read abundance (log10).
1. CGATGGTCATGGACCGGTTTTCCCGGTAATCCGTATTTGCT (site CGATGGTCTAG)
2. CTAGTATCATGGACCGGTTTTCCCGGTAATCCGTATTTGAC (site CTAGCATCTGG)
3. GCAGTGGCATGGACCGGTTTTCCCGGTAATCCGTATTTGGT (site GAAGTGGCTAC)
4. TTCGGTTCATGGACCGGTTTTCCCGGTAATCCGTATTTGGA (site TTCGGTTCTTC)

Marked response:
[2.8, 0, 0.0767, 0]
